- Test system: heme oxygenase (HO-1) luciferase reporter
- Experimental details: Heme oxygenase (HO-1) luciferase reporter in HepG2 cells
- Measurement conditions: HepG2 cell line, 24 hours, ratio over vehicle control, concentration not given
Experimental endpoint: Fold Induction of heme oxygenase luciferase activity

compound=[Cl-].[Cl-].[Zn+2] readout_value="1.5 fold"
compound=O=c1oc2c(O)c3oc(=O)c4c5c(oc(=O)c6cc(O)c(O)c(O)c65)c(O)c5oc(=O)c(c2c2c(O)c(O)c(O)cc12)c3c54 readout_value="1.7 fold"
compound=C=C1CC[C@@H]2[C@](C)(CO)[C@H](O)CC[C@@]2(C)[C@@H]1C/C=C1/C(=O)OC[C@H]1O readout_value="4.4 fold"
compound="C[S+]([O-])CCCCN=C=S (stereo not shown) [Sulforaphane, reference compound]" readout_value="4.2 fold"
compound=COc1cc(C=CC(=O)CC(=O)C=Cc2ccc(O)c(OC)c2)ccc1O readout_value="6.1 fold"
compound=COc1cc(O)c(CC=C(C)C)c(O)c1C(=O)/C=C/c1ccc(O)cc1 readout_value="5.4 fold"
compound=CC1(C)CC[C@]2(C(=O)O)CC[C@]3(C)C(=CC[C@@H]4[C@@]5(C)CC[C@H](O)C(C)(C)[C@@H]5CC[C@]43C)[C@@H]2C1 readout_value="2.7 fold"

Every entry's value here was drawn from patent US8241674B2.
